Biological target: EP4 receptor (Homo sapiens)
Construct: BT549 breast cancer cells, express high endogenous EP4 levels and very low EP2 levels
Assay: hEP4 cAMP assay (BT549 breast cancer cells, HTRF cAMP, PGE2 stimulation)
Conditions: antagonistic activity, PGE2 6 nM (EC80)
ASSAY METRIC: IC50 (nM)

>  <CHEMICAL STRING>
CCOc1cc(-c2cc(NCCc3c(C)sc4c(C)cc(F)cc34)ncn2)ccc1-c1noc(=O)[nH]1

>  <IC50, nM>
108

$$$$
>  <CHEMICAL STRING>
CCOc1cc(-c2cc(NCCc3c(C)sc4c(C)cc(F)cc34)ncn2)sc1CC(=O)OC

>  <IC50, nM>
855

$$$$
>  <CHEMICAL STRING>
Cc1sc2c(C)cc(F)cc2c1CCNc1cc(-c2ccc(C(=O)O)c(OCCO)c2)ncn1

>  <IC50, nM>
289

$$$$
>  <CHEMICAL STRING>
Cc1sc2c(C)ccc(F)c2c1CCNc1cc(-c2ccc(C(=O)O)c(OC3CCC3)c2)ncn1

>  <IC50, nM>
411

$$$$
>  <CHEMICAL STRING>
COc1ccc(F)c2c(CCNc3cc(-c4ccc(C(=O)O)c(OC5CC5)c4)ncn3)c(C)sc12

>  <IC50, nM>
117

$$$$

(A) CCCCOc1cc(-c2cc(NCCc3c(C)sc4c(C)cc(F)cc34)ncn2)cc(F)c1C(=O)O
(B) CSc1cc(-c2cc(NCCc3c(C)sc4c(Cl)cc(F)cc34)ncn2)ccc1C(=O)O
(C) CCCOc1cc(-c2cc(NCCc3c(C)sc4c(C)cc(F)cc34)ncn2)ccc1C(=O)O
(Q) Sort low-to-high on IC50, please. Provide the ranking by listing each label in its place in the requested order.
(A) A, C, B

* * *

Molecular target: PTGER4 (EP4) (Homo sapiens, UniProt P35408)
Sequence (P35408 whole entry): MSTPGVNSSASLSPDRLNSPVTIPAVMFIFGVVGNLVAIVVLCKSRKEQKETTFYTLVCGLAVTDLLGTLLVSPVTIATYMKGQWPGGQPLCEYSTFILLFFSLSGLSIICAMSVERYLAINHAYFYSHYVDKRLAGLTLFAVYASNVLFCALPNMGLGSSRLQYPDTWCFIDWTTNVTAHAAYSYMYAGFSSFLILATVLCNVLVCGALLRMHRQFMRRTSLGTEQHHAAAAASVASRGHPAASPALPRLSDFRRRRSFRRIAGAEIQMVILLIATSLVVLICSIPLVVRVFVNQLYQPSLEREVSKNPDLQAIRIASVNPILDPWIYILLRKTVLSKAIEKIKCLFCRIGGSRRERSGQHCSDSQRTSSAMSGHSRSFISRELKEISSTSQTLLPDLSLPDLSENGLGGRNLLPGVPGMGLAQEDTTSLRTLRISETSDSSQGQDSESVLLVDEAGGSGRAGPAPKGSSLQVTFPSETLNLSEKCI
Assay: hEP4 b-arrestin assay (PathHunter HEK 293 PTGER4 b-arrestin cells)
Details: antagonistic activity, beta-arrestin assay; read-out: hEP4 b-arr IC50
ASSAY METRIC: IC50 (nM)

>  <COMPOUND>
CCOc1cc(-c2cc(NCCc3c(C)sc4c(C)cccc34)ncn2)ccc1C(=O)O [Example 60]

>  <TGT>
PTGER4 (EP4) (Homo sapiens, UniProt P35408)

>  <UNITS TEXT>
nM

>  <IC50>
372

$$$$

(1) CCOc1cc(-c2cc(NCCc3c(C)sc4c(C)cc(F)cc34)ncn2)ccc1C(N)=O [Example 213]
(2) Cc1sc2c(C)cccc2c1CCNc1cc(-c2ccc(C(=O)O)c(SC3CCC3)c2)ncn1 [Example 130]
(Q) // compare measured IC50 between 1 and 2 ; output the lower one Select an item and report its label.
(A) 2

(A) CCc1oc2c(C)cc(F)cc2c1CCNc1cc(-c2cc(C)c(C(=O)O)s2)ncn1 [Example 7]
(B) COc1ccc(Cl)c2c(CCNc3cc(-c4ccc(C(=O)O)c(OC(F)F)c4)ncn3)c(C)sc12 [Example 116]
(C) CCOc1cc(-c2cc(NCCc3c(C)sc4c(C)ccc(Cl)c34)ncn2)ccc1CC(=O)O [Example 111]
(Q) Order each entry by recorded IC50, climbing from the minimum. Submit the labels in the order that the ranking request calls for.
(A) C, B, A
(C: 197 nM, B: 297 nM, A: 577 nM)

(A) CSc1cc(-c2cc(NCCc3c(C)sc4c(C)cccc34)ncn2)cc(Cl)c1C(=O)O [Example 50]
(B) CCOc1nc(-c2cc(NCCc3c(C)sc4c(C)cc(F)cc34)ncn2)sc1C(=O)O [Example 160]
(C) COc1cc(Cl)cc2c(CCNc3cc(-c4ccc(C(=O)O)c(OC5CCC5)c4)ncn3)c(C)oc12 [Example 133]
(Q) Order field: IC50 | Direction: descending (largest first) Please list each label once, in the requested order.
(A) A, C, B
(A: 432 nM, C: 74 nM, B: 16 nM)

* * *

Target: PTGER2 (EP2) (Homo sapiens, UniProt P43116)
Sequence (P43116 whole entry): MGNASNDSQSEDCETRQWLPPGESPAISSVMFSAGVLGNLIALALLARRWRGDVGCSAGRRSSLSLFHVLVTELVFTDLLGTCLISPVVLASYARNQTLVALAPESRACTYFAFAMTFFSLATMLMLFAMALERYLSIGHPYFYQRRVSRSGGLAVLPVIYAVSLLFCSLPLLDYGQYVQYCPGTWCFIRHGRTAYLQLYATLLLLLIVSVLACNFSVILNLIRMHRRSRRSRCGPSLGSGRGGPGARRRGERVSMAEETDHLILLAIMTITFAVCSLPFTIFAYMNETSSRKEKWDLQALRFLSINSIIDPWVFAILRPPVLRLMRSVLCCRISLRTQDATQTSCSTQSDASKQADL
Test: hEP2 b-arrestin assay (PathHunter HEK 293 PTGER2 b-arrestin cells)
Details: antagonistic activity, beta-arrestin assay; read-out: hEP2 b-arr IC50
ASSAY METRIC: IC50 (µM)

Example results:
>  <CHEMICAL STRING>
CSc1cc(-c2cc(NCCc3c(C)sc4c(C)cccc34)ncn2)cc(F)c1C(=O)O

>  <ASSAY METRIC>
IC50

>  <TEST VALUE>
0.01

$$$$
>  <CHEMICAL STRING>
Cc1cc(-c2cc(NCCc3c(C)sc4c(C)cc(F)cc34)ncn2)cc(Cl)c1CC(=O)O

>  <ASSAY METRIC>
IC50

>  <TEST VALUE>
0.077

$$$$
>  <CHEMICAL STRING>
Cc1sc2c(C)cccc2c1CCNc1cc(-c2ccc(C(=O)O)c(SC3CCC3)c2)ncn1

>  <ASSAY METRIC>
IC50

>  <TEST VALUE>
0.012

$$$$

(I) CCOc1cc(-c2cc(NCCc3c(C)oc4c(OC)ccc(F)c34)ncn2)sc1C(=O)O
(II) CCOc1cc(-c2cc(NCCc3c(C)oc4c(Cl)cccc34)ncn2)sc1C(=O)O
(III) COc1ccc(Cl)c2c(CCNc3cc(-c4ccc(C(=O)O)c(O)c4)ncn3)c(C)sc12
(Q) Arrange these compounds by their IC50, starting with the largest number. Rank the items, then write their labels in that order.
(A) III, I, II

(P) CCOc1cc(-c2cc(NCCc3c(C)sc4c(C)cc(F)cc34)ncn2)sc1C(=O)NS(C)(=O)=O
(Q) CCOc1cc(-c2cc(NCCc3c(C)sc4c(C)cccc34)ncn2)ccc1CC(=O)O
(R) CCOc1c(CC(=O)O)ccc(-c2cc(NCCc3c(C)sc4c(C)cc(F)cc34)ncn2)c1F
(Q) List items by IC50 in falling order. List the labels according to the requested ordering.
(A) R, Q, P

* * *

Target: EP2 receptor (Homo sapiens)
Construct: SF295 glioblastoma cells express high endogenous EP2 and no EP4
Assay: hEP2 cAMP assay (SF295 glioblastoma cells, HTRF cAMP, PGE2 stimulation)
Conditions: antagonistic activity
pIC50: −log10 of the molar value.
ASSAY METRIC: pIC50

(I) Cc1sc2c(C)cccc2c1CCNc1cc(-c2ccc3cc(C(=O)O)oc3c2)ncn1 [Example 77]
(II) Cc1sc2c(C)cccc2c1CCNc1cc(-c2ccc(C(=O)O)c(SC3COC3)c2)ncn1 [Example 131]
(Q) Hi there, can you help? I need to know whether I or II has lower measured pIC50. Refer to your chosen item by its label in the answer.
(A) II

(P) CCCSc1cc(-c2cc(NCCc3c(C)sc4ccccc34)ncn2)ccc1C(=O)O [Example 88]
(Q) CSc1cc(-c2cc(NCCc3c(C)oc4ccccc34)ncn2)cc(Cl)c1C(=O)O [Example 51]
(Q) Given the listed records, identify the one among P and Q with higher pIC50. Please reply using the label of the selected record.
(A) Q
(Q: 9.00, P: 7.96)

* * *

Target: EP4 receptor (Homo sapiens, UniProt P35408)
Construct: BT549 breast cancer cells, express high endogenous EP4 levels and very low EP2 levels
Test: hEP4 cAMP assay (BT549 breast cancer cells, HTRF cAMP, PGE2 stimulation)
Details: antagonistic activity, PGE2 6 nM (EC80)
ASSAY METRIC: IC50 (µM)

>  <CHEMICAL STRING>
COc1cc(Cl)cc2c(CCNc3cc(-c4cc(F)c(C(=O)O)c(OC5CCC5)c4)ncn3)c(C)oc12

>  <IC50 [µM]>
0.631

$$$$

(P) COc1ccc(F)c2c(CCNc3cc(-c4cc(F)c(C(=O)O)c(OC5CCC5)c4)ncn3)c(C)sc12
(Q) CCOc1cc(-c2cc(NCCc3c(C)sc4c(OC)ccc(F)c34)ncn2)ccc1OCC(=O)O
(Q) Between P and Q , whose measured IC50 reads higher? I would appreciate it if you answered with the label of your choice.
(A) P

(A) COc1cc(Cl)cc2c(CCNc3cc(-c4ccc(C(=O)O)c(OC5CCC5)c4F)ncn3)c(C)oc12
(B) CCSc1cc(-c2cc(NCCc3c(C)sc4ccccc34)ncn2)ccc1C(=O)O
(Q) Lab log: flag the item ( A or B ) with the smaller IC50 figure. # answer = label of selected item
(A) B

(a) CCOc1cc(-c2cc(NCCc3c(C)sc4c(C)ccc(Cl)c34)ncn2)ccc1CC(=O)O
(b) Cc1cc(F)cc2c(CCNc3cc(-c4ccc(C(=O)O)c(OC(C)C)c4)ncn3)c(C#N)sc12
(Q) Please tell me which of the two, a or b , has the higher reported IC50 value. Record your answer as the label of the chosen record.
(A) a

* * *

Target: EP2 receptor (Homo sapiens, UniProt P43116)
Construct: SF295 glioblastoma cells express high endogenous EP2 and no EP4
Sequence (P43116 whole entry): as above
Test: hEP2 cAMP assay (SF295 glioblastoma cells, HTRF cAMP, PGE2 stimulation)
Details: antagonistic activity
ASSAY METRIC: IC50 (nM)

Answered examples (4):
>  <MOLECULE>
CCOc1cc(-c2cc(NCCc3c(C)sc4c(C)ccc(F)c34)ncn2)sc1C(=O)O [Example 25]

>  <IC50 (nM)>
8

$$$$
>  <MOLECULE>
CCCCOc1cc(-c2cc(NCCc3c(C)sc4c(C)cc(F)cc34)ncn2)cc(F)c1C(=O)O [Example 144]

>  <IC50 (nM)>
26

$$$$
>  <MOLECULE>
CCOc1cc(-c2cc(NCCc3c(C)sc4c(C)cc(F)cc34)ncn2)ccc1C(=O)O [Example 56]

>  <IC50 (nM)>
19

$$$$
>  <MOLECULE>
CSc1cc(-c2cc(NCCc3c(C)oc4ccccc34)ncn2)ccc1C(=O)O [Example 18]

>  <IC50 (nM)>
1

$$$$

(P) COc1ccc(Cl)c2c(CCNc3cc(-c4cc(C)c(C(=O)O)s4)ncn3)c(C)sc12 [Example 5]
(Q) COc1ccc(Cl)c2c(CCNc3cc(-c4ccc(C(=O)O)c(OC(F)F)c4)ncn3)c(C)sc12 [Example 116]
(R) Cc1sc2c(C)cc(F)cc2c1CCNc1cc(-c2ccc(-c3nc(=O)[nH]o3)cc2)ncn1 [Example 79]
(S) CCOc1cc(-c2cc(NCCc3c(C)oc4c(Cl)cc(Cl)cc34)ncn2)ccc1C(=O)O [Example 71]
(Q) Ranking field: IC50; order: falling. Use the labels to give the requested order.
(A) P, R, Q, S

(I) CCOc1cc(-c2cc(NCCc3c(C)sc4c(C)cc(F)cc34)ncn2)ccc1CC(=O)O [Example 110]
(II) CCOc1cc(-c2cc(NCCc3c(C)sc4c(C)cc(F)cc34)ncn2)sc1CC(=O)OC [Example 95]
(III) CCCCOc1cc(-c2cc(NCCc3c(C)sc4c(C)cc(F)cc34)ncn2)ccc1C(=O)O [Example 127]
(IV) CCOc1nc(-c2cc(NCCc3c(C)sc4c(C)cc(F)cc34)ncn2)sc1C(=O)O [Example 160]
(Q) Please put the entries in order of rising IC50. Give me the labels in the order the question wants.
(A) IV, III, I, II
(IV: 10 nM, III: 106 nM, I: 160 nM, II: 647 nM)

(P) CCOc1cc(-c2cc(NCCc3c(C)sc4c(C)ccc(Cl)c34)ncn2)ccc1CC(=O)O [Example 111]
(Q) CCOc1cc(-c2cc(NCCc3c(C)sc4c(C)cc(F)cc34)ncn2)sc1/C=C/C(=O)O [Example 96]
(Q) Hi! Which is lower in terms of IC50, the first one P or the second one Q ? Please reply using the label of the selected record.
(A) Q
(Q: 121 nM, P: 561 nM)

(a) CCCc1cc(-c2cc(NCCc3c(C#N)sc4c(C)cc(F)cc34)ncn2)ccc1CC(=O)O [Example 170]
(b) CCOc1cc(-c2cc(NCCc3c(C)oc4c(C)cc(F)cc34)ncn2)ccc1C(=O)O [Example 69]
(Q) Compare the recorded IC50 of a and b ; state which is larger. Identify your selection by its label.
(A) a

Each recorded value in this set is attributed to patent US11325899B2.
